Source: ChEMBL document CHEMBL1201862

Would you mind telling me the reported GI50 of each entry?
# Tested on: HCT-116
# assay: NCI tumour cell line growth inhibition, 48 h
Calls of active or inactive are those of the source. No stated cut-off is given here; in the data, active = GI50 up to about 1.1 µM and inactive = higher.

Name the recorded GI50 of the item COc1ccc2nc(NC(=O)/C(C#N)=C/c3ccccc3)sc2c1 in your answer.
24.7 µM (inactive)

For the compound C=CC(C)(C)[C@@]12CC3C(=O)N[C@@H](Cc4ccccc4)C(=O)N3[C@@H]1N(C(C)=O)c1ccccc12 (some centres undefined) , give its reported GI50.
> 100 µM (inactive)

Output GI50 of CCOC(=O)c1nc2cc(C(F)(F)F)ccc2nc1Nc1cc(OC)c(OC)c(OC)c1
> 100 µM (inactive)

Supply GI50 value. Item: COc1ccc(CNc2nc(NCc3ccc(OC)cc3)nc(NC3CCCC3)n2)cc1
2.64 µM (inactive)

Answer with the recorded GI50 for the compound listed here: COC(=O)c1c(C(=O)OC)c(C(c2ccccc2)c2ccccc2)n(-c2ccccc2)c1Cl
3.7 µM (inactive)

Answer with the recorded GI50 of O=C(CSc1nnc(-c2ccc(/N=C\c3ccc(Cl)cc3)cc2)o1)Nc1cccc([N+](=O)[O-])c1 only.
> 100 µM (inactive)

Query GI50 for COC(=O)C1=CNC(C(=O)OC)=NN1
> 100 µM (inactive)

Name the recorded GI50 of the item CC(CCC(=O)O)[C@H]1CCC2[C@H]3C(CC(=O)[C@@]21C)[C@@]1(C)CCC(O)C[C@H]1C[C@@H]3O (some centres undefined) in your answer.
> 100 µM (inactive)

Using known records, supply GI50 for O=C(O)c1ccc(N2C=[N+]3C(=Nc4ccccc43)C2)cc1
> 100 µM (inactive)
